TESTED_ON: h5-HT3AR (Homo sapiens, UniProt P46098, V202I)
Sequence (P46098 24-478 V202I): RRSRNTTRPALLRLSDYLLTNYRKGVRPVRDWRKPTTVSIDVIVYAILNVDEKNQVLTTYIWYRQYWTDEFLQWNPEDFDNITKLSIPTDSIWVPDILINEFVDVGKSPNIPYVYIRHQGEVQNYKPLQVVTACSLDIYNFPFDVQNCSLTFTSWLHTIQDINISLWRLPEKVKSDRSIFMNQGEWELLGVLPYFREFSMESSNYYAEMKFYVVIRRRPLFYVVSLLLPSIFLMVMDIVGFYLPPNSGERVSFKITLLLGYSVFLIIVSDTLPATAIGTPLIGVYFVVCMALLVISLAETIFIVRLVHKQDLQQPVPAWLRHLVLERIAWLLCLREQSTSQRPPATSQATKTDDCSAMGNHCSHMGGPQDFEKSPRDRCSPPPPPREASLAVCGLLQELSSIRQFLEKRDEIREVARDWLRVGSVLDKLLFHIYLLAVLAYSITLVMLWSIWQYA
PROTOCOL_DETAILS: FLIPR Blue membrane potential assay, inhibition of 5-HT response
MEASUREMENT_LABEL: pIC50
# reply with the number alone; pIC50 is -log10 of concentration in mol/L

// query Find the measured pIC50: item Cc1ccc(Sc2ccccc2N2CCNCC2)c(C)c1 , target or system h5-HT3AR (Homo sapiens, UniProt P46098, V202I).
// result 7.43

---

TESTED_ON: h5-HT3AR (Homo sapiens, UniProt P46098, V202I)
PROTOCOL_DETAILS: biochemical
MEASUREMENT_LABEL: pKd
Notebook: values listed as pKd are -log10 of the concentration (mol/L).

// query Requested field: pKd. Item: Cc1[nH]cnc1CCC(=O)c1cn(C)c2ccccc12 [[3H]-GR65630]
// result 9.21

---

TESTED_ON: h5-HT3AR (Homo sapiens, UniProt P46098, R200K)
Sequence (P46098 24-478 R200K): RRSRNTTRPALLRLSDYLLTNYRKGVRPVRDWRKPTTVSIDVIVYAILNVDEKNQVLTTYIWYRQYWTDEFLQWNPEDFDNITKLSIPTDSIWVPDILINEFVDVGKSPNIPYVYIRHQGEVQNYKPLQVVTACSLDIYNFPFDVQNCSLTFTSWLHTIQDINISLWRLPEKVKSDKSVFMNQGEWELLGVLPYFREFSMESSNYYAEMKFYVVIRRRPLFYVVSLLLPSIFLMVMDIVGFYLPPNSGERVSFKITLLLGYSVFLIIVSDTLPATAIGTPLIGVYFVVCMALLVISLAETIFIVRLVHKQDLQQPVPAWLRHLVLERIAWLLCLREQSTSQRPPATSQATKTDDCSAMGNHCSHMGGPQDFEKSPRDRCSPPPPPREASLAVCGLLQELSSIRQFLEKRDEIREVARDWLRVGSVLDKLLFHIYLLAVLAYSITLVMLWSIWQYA
PROTOCOL_DETAILS: FLIPR Blue membrane potential assay, inhibition of 5-HT response
MEASUREMENT_LABEL: IC50 (nM)
Field: numeric (nM). Do not append units.

// query What value of IC50 has been reported for the following compound? Cc1ccc(Sc2ccccc2N2CCNCC2)c(C)c1
// result 94

---

This listing pairs compounds with measured Ki.
Target sequence: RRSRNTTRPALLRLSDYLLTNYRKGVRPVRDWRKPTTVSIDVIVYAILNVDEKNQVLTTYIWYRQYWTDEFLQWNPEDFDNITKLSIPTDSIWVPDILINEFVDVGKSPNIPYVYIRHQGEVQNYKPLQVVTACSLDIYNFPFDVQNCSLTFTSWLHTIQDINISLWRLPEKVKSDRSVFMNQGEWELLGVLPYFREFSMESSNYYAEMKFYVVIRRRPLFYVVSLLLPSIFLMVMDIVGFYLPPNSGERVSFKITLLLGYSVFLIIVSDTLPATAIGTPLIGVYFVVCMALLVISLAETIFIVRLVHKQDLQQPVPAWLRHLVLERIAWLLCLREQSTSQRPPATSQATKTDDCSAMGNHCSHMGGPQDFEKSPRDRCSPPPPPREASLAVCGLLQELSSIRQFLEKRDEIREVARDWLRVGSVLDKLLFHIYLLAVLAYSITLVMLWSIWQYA
Give the value in nM but do not write nM after it.

Cc1ccc(Sc2ccccc2N2CCNCC2)c(C)c1 ... 24

// query Recorded Ki of Cc1ccc(Sc2ccc(C)cc2N2CCNCC2)c(C)c1 , please.
// result 880

---

TESTED_ON: r5-HT3AR (Rattus norvegicus, UniProt P35563)
Sequence (P35563 24-483): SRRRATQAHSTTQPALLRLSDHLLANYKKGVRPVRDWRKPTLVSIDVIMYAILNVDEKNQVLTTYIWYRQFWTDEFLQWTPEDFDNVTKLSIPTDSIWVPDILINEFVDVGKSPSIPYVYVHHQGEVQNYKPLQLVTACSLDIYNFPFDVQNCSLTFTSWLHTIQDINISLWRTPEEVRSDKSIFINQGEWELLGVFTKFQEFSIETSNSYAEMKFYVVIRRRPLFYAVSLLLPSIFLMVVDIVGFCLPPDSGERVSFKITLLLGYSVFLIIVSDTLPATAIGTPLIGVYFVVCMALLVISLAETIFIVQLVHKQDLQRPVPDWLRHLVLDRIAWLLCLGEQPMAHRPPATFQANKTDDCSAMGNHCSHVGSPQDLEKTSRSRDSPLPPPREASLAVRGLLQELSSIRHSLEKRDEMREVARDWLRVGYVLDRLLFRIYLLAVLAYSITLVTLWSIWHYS
PROTOCOL_DETAILS: FLIPR Blue membrane potential assay, inhibition of 5-HT response
MEASUREMENT_LABEL: pIC50
API: returns pIC50 as number; meaning -log10 of concentration in mol/L.

// query Tell me the measured pIC50 of Cc1ccc(Sc2ccccc2N2CCNCC2)c(C)c1 [vortioxetine] , please.
// result 7.59

---

TESTED_ON: h5-HT3AR (Homo sapiens, UniProt P46098, Y228S)
Sequence (P46098 24-478 Y228S): as the sequence (P46098 24-478 R200K) above, with K177R, Y205S counted along it
PROTOCOL_DETAILS: FLIPR Blue membrane potential assay, inhibition of 5-HT response
MEASUREMENT_LABEL: IC50 (nM)
Note: unit nM is implicit; provide only the numeric part.

// query Give its IC50 value. Item: Cc1ccc(Sc2ccccc2N2CCNCC2)c(C)c1 [vortioxetine]
// result 84

Just for reference, paper doi:10.1101/2024.02.23.581731v1 is where these values come from.
